Experimental Target: binding of recombinant, trimeric SARS-CoV-2 spike protein to recombinant human ACE2 (Severe acute respiratory syndrome coronavirus 2, UniProt P0DTC2, K986P/R682G/R683S/R685S/V987P)
Method: biochemical
Set-up: species or system SARS-CoV-2 / human
Counter-ions that a name gives are not always drawn.
Measurement Label: % Inhibition (%)
// return numeric value only (unit: %, not printed)

Request: Fill blank: measured % Inhibition of the compound "CN1CCN(c2ccc(C(=O)Nc3n[nH]c4ccc(Cc5cc(F)cc(F)c5)cc34)c(NC3CCOCC3)c2)CC1" is ____.
Response: 90

Request: And the next one, C[C@]12CC[C@@H]3c4ccc(OC(=O)c5ccccc5)cc4CC[C@H]3[C@@H]1CC[C@@H]2O [Estradiol benzoate] ?
Response: 93

Request: And the next one, Cc1c(O)cccc1C(=O)N[C@@H](CSc1ccccc1)[C@H](O)CN1C[C@H]2CCCC[C@H]2C[C@H]1C(=O)NC(C)(C)C [Nelfinavir Mesylate] ?
Response: 94

Request: And the next one, Cc1nc(Nc2ncc(C(=O)Nc3c(C)cccc3Cl)s2)cc(N2CCN(CCO)CC2)n1.Cl [Dasatinib HCl] ?
Response: 98

----------
Experimental Target: binding of recombinant, trimeric SARS-CoV-2 spike protein to recombinant human ACE2 (Severe acute respiratory syndrome coronavirus 2, UniProt P0DTC2, K986P/R682G/R683S/R685S/V987P)
Method: biochemical
Parameters: species or system SARS-CoV-2 / human
Experimental Context: read-out: EC50 (corrected)
Numbered stars: 1 amine (or outer) side, 2 acyl side, 3 side chain; on linkers, the order of the positions; unused ones are H or OH. Bridge positions count the residues as written; N and C are the ends. Square brackets hold non-standard residues; d marks the D form. Peptide text beside a SMILES is read from it. * marks the point of attachment. Orn(4R-OH,5R-OH) = O=C([C@H](C[C@@H](O)[C@@H](O)N[*:3])N[*:1])[*:2]; Tetradecanoyl(10R,12S-Me2) = CC[C@H](C)C[C@H](C)CCCCCCCCC(=O)*; hTyr(3S-OH,4S-OH) = N[C@H](C(=O)O)[C@H](O)[C@@H](O)c1ccc(O)cc1; Gln(3R-OH) = NC(=O)C[C@@H](O)[C@H](N)C(=O)O; Pro(3S-OH) = O=C(O)[C@H]1NCC[C@@H]1O; Hyp = O=C(O)[C@@H]1C[C@@H](O)CN1
Measurement Label: EC50 (µM)
// return numeric value only (unit: µM, not printed)

Request: Fill blank: measured EC50 of the compound CC[C@H](C)C[C@H](C)CCCCCCCCC(=O)N[C@H]1C[C@@H](O)[C@@H](O)NC(=O)[C@@H]2[C@@H](O)CCN2C(=O)[C@H]([C@H](O)CC(N)=O)NC(=O)[C@H]([C@H](O)[C@@H](O)c2ccc(O)cc2)NC(=O)[C@@H]2C[C@@H](O)CN2C(=O)[C@H]([C@@H](C)O)NC1=O [Pneumocandin B0] ({Tetradecanoyl(10R,12S-Me2)}-[Orn(4R-OH,5R-OH)]T[Hyp][hTyr(3S-OH,4S-OH)][Gln(3R-OH)][Pro(3S-OH)]; lactam 1-C) is ____.
Response: 72.8

Request: And the next one, Cc1nc(Nc2ncc(C(=O)Nc3c(C)cccc3Cl)s2)cc(N2CCN(CCO)CC2)n1.Cl [Dasatinib HCl] ?
Response: 65.9

Request: And the next one, CCOC(=O)c1c(N)sc2c1CCN(Cc1ccccc1)C2.Cl [Tinoridine Hydrochloride] ?
Response: 257
